Test target: T1, human programmed cell death protein 1 (hPD-1) C93S (aa 24-167) (Homo sapiens, UniProt Q15116, C93S)
T1 construct: made as a fusion with a TEV site and human Fc; the Fc was cut off with TEV protease; source: Expi293F, purified (Protein A, TEV cleavage of Fc, SEC; monomer fractions); not shown: Fc (human), C-terminal, cleaved
T1 sequence (Q15116 24-167 C93S): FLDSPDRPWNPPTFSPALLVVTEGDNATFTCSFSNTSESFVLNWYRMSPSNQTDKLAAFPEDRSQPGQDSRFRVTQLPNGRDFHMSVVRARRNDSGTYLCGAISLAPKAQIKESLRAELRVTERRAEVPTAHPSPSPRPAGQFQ
Protocol summary: SPR; Carterra LSA; Fab from the ammonium sulfate precipitate of the culture supernatant immobilised on a NiHC200M chip; hPD-1 (1-1024 nM) or mPD-1-Fc (4-1024 nM) as analyte, fourfold dilution series, no regeneration; HBS-EP pH 7.4, 25 °C; medians over the spots of a construct, KD = koff/kon
Test parameters: one partner purified
Endpoint name: koff (s⁻¹)
Kindly provide the numeric value in s⁻¹ only, without the unit symbol.

[
  {
    "Binder": "toripalimab Fab L.H98Y (Fab, V domains shown, as the heavy chain of Sm3; light chain of Sm3 with this change; numbers count from the chain's first residue; source: Brevibacillus, culture supernatant (ammonium sulfate precipitate); not shown: 6xHis, C-terminal, kept; 6xHN, C-terminal, kept) VH: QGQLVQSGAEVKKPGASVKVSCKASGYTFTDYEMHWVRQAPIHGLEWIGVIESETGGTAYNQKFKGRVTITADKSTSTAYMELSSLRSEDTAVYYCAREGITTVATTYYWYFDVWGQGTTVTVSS VL: DVVMTQSPLSLPVTLGQPASISCRSSQSIVHSNGNTYLEWYLQKPGQSPQLLIYKVSNRFSGVPDRFSGSGSGTDFTLKISRVEAEDVGVYYCFQGSYVPLTFGQGTKLEIK",
    "Endpoint name": "koff",
    "Readout value": "1.34e-05"
  }
]

Now examine the next entry.
# lookup: koff of toripalimab Fab L.S97Y (Fab, V domains shown, as the heavy chain of Sm3; light chain of Sm3 with this change; numbers count from the chain's first residue; source: Brevibacillus, culture supernatant (ammonium sulfate precipitate); not shown: 6xHis, C-terminal, kept; 6xHN, C-terminal, kept) VH: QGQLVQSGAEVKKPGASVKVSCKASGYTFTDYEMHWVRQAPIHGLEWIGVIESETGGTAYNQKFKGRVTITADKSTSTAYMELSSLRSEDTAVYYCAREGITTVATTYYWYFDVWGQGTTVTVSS VL: DVVMTQSPLSLPVTLGQPASISCRSSQSIVHSNGNTYLEWYLQKPGQSPQLLIYKVSNRFSGVPDRFSGSGSGTDFTLKISRVEAEDVGVYYCFQGYHVPLTFGQGTKLEIK 0.000845
